assay_explanation: Inhibition of farnesyl transferase
Design: species or system Homo sapiens
measured_attribute: IC50 (µM)

Below, each entry is followed by its recorded IC50 result.
molecule	IC50 [µM]
CSCC[C@H](NCc1cccc(NC(=O)C[C@@H]2COc3ncccc3O2)c1-c1ccccc1C)C(=O)O (mixture of isomers)	16
CSCC[C@H](NCc1cccc(NC(=O)C[C@H]2COc3ncccc3O2)c1-c1ccccc1C)C(=O)O	12

I = COc1ccccc1-c1c(CN[C@@H](CCSC)C(=O)O)cccc1NC(=O)C[C@H]1COc2ncccc2O1
II = CSCC[C@H](NC(=O)c1ccc(OC[C@@H]2COc3ncccc3O2)cc1-c1ccccc1C)C(=O)O
Of the pair I and II , name the member with the lesser recorded IC50. # reply format: chosen label II

====

assay_explanation: Inhibition of farnesyl transferase
Set-up: species or system Homo sapiens
measured_attribute: IC50 (µM)

1 = COc1ccccc1-c1c(CN[C@@H](CCSC)C(=O)O)cccc1NC(=O)C[C@@H]1COc2ncccc2O1 (mixture of isomers)
2 = COc1ccccc1-c1cc(OC[C@@H]2COc3ncccc3O2)ccc1C(=O)N[C@H](CCSC)C(=O)O
Between 1 and 2 , whose recorded IC50 is greater? # reply format: chosen label 1
(1: 151 µM, 2: 0.112 µM)

====

assay_explanation: Inhibition of farnesyl transferase
Parameters: species or system Homo sapiens
measured_attribute: IC50 (µM)

molecule	unit_of_measurement	measured_number
CSCC[C@H](NC(=O)c1ccc(OC[C@H]2COc3ncccc3O2)cc1-c1ccccc1C)C(=O)O	µM	0.05

I = COc1ccccc1-c1c(CN[C@H](CCSC)C(=O)O)cccc1NC(=O)C[C@H]1COc2ncccc2O1 (mixture of isomers)
II = CSCC[C@@H](NC(=O)c1ccc(OC[C@H]2COc3ncccc3O2)cc1-c1ccccc1C)C(=O)O
Between I and II , whose recorded IC50 is greater? # reply format: chosen label I
(I: 843 µM, II: 0.075 µM)

====

assay_explanation: Inhibition of farnesyl transferase
Parameters: species or system Homo sapiens
measured_attribute: IC50 (µM)

compound	unit_of_measurement	measured_number
COc1ccccc1-c1cc(OC[C@@H]2COc3ncccc3O2)ccc1C(=O)N[C@@H](CCSC)C(=O)O (mixture of isomers)	µM	0.055
COc1ccccc1-c1cc(OC[C@H]2COc3ncccc3O2)ccc1C(=O)N[C@@H](CCSC)C(=O)O	µM	0.053
CSCC[C@@H](NC(=O)c1ccc(OC[C@@H]2COc3ncccc3O2)cc1-c1ccccc1C)C(=O)O	µM	0.053
